Provide the reported melting point of each item.

The examples below pair each entry with its known result.
compound | melting point
C=CCOc1cccc2c(=O)cc(N3CCOCC3)oc12 | 134 to 136 °C
Cc1ccccc1Sc1c(O)c2ccc(Cl)cc2[nH]c1=O | 296 to 299 °C
Cc1nc(NC(=O)c2ccccc2)cn1CCCCC1(C(=O)NCC(F)(F)F)c2ccccc2-c2ccccc21 | 145 to 147 °C
O=C(NNc1ccccc1)N1CCN2C(=O)OC(c3ccccc3)(c3ccccc3)C2C1 (stereo unspecified) | 227 to 228 °C
CCCCc1nc2c(N)nc3cc(-c4ccsc4)ccc3c2n1CC(C)C | 229 to 230 °C

Give one value of melting point per listed compound.
1. CC1CCCCC1NC(=O)C1=C(C(=O)Nc2cc(OC3CCCC3)c(Cl)cc2F)CCCC1 (stereo unspecified)
2. CCc1cc(C)cc(CC)c1C1=C(OCc2ccccc2)C2CC(C=CC(C)=O)CC2C1=O (stereo unspecified)
3. Cc1[nH]c2ccccc2c1CCCN1CCC(C(=O)c2ccc(F)cc2)CC1
4. Clc1ccc2sc(Cl)nc2c1
5. CCOC(=O)c1c(O)c2cc(F)cnc2n(Cc2ccc(OC)cc2)c1=O
6. O=C(O)c1cc(Cl)cc(Cl)c1OC1CCOC1=O (stereo unspecified)
7. COc1ccc(N)c2nccc(Cl)c12

[reply]
1. 192 to 195 °C
2. 60 °C
3. 135 to 137 °C
4. 70 °C
5. 163 °C
6. 117 to 120 °C
7. 111 to 115 °C

Give one value of melting point per listed compound.
1. COC(=O)c1cc2cc(OC)ccc2cc1O
2. CCc1c(Cl)c2ccccn2c1C(=O)c1ccc(O)c(Br)c1
3. CC(C)[C@H](N)C(=O)OCc1nc2c(N)nc3ccccc3c2n1CC(C)(C)O
4. CC(C)(C)OC(=O)/C=C/c1ccnc(-c2nc(=O)c3ccccc3s2)c1

[reply]
1. 129 to 131 °C
2. 204 °C
3. 190 to 192 °C
4. 196 to 197 °C
